# SUBJECT_OF_TEST: PIK3CA_C242 (Homo sapiens, UniProt P42336)
# Construct: endogenous in cells
# EXPERIMENTAL_PROTOCOL: Proteomic TE50 (IA-DTB / TMT mass spectrometry) in Jurkat cell lysate
# MEASUREMENT_CONTEXT: 1 hour at rt, 7-point dose response
REPORTED_ENDPOINT: IC50 (nM)

C[C@H](/C=C\S(C)(=O)=O)NC(=O)C1(F)CCN(S(=O)(=O)c2ccc(N(C)C)cc2-c2ccccc2Cl)CC1    139

[A] C[C@H](/C=C\S(C)(=O)=O)NC(=O)C1(F)CCN(S(=O)(=O)c2ccc(Br)cc2-c2ncccc2Cl)CC1
[B] C[C@@H](/C=C\S(C)(=O)=O)NC(=O)C1(F)CCN(S(=O)(=O)c2ccc(Cl)cc2-c2cccc(Cl)c2)CC1
[C] CCCOc1cccc(-c2cc(Cl)ccc2S(=O)(=O)N2CCC(F)(C(=O)N[C@@H](C)/C=C\S(C)(=O)=O)CC2)c1
[D] CCCNC(=O)c1cccc(-c2cc(Cl)ccc2S(=O)(=O)N2CCC(F)(C(=O)N[C@@H](C)/C=C\S(C)(=O)=O)CC2)c1
Request: Falling order of IC50, please. Put the labels in the order asked and list them.
Result: D, A, C, B

[P] COc1cc(-c2ccccc2C)c(S(=O)(=O)N2CCC(F)(C(=O)NC/C=C/S(C)(=O)=O)CC2)cn1
[Q] CCc1ccc(S(=O)(=O)N2CCC(F)(C(=O)N[C@H](C)/C=C\S(C)(=O)=O)CC2)c(-c2ccccc2)c1
[R] C[C@H](/C=C\S(C)(=O)=O)NC(=O)C1(F)CCN(S(=O)(=O)c2ccc(N3CCC3)cc2-c2ccccc2Cl)CC1
[S] COc1cc(-c2ccccc2)c(S(=O)(=O)N2CCC(F)(C(=O)NC/C=C/S(C)(=O)=O)CC2)cn1
Request: Please list these in order of increasing IC50. Thank you! Provide your answer as the labels ordered per the instruction.
Result: R, P, Q, S

[A] CN(C)c1ccc(S(=O)(=O)N2CCC(F)(C(=O)NC/C=C/S(C)(=O)=O)CC2)c(-c2ccccc2)c1
[B] COc1cccc(-c2cc(Cl)ccc2S(=O)(=O)N2CCC(C)(C(=O)N[C@@H](C)/C=C\S(C)(=O)=O)CC2)c1
Request: Which of these two has the smaller recorded IC50: A or B ? Could you answer with the label of the item you picked?
Result: A

[a] C[C@H](/C=C\S(C)(=O)=O)NC(=O)C1(F)CCN(S(=O)(=O)c2cc(=O)n(C)cc2-c2ccccc2Cl)CC1
[b] COc1cc(-c2ccccc2Cl)c(S(=O)(=O)N2CCC(F)(C(=O)N[C@@H](C)/C=C\S(C)(=O)=O)CC2)cn1
Request: Which one would you say has the larger IC50 value: a , or b ? When you have decided, please share the label of that item.
Result: a

----------
# SUBJECT_OF_TEST: PIK3CA_C242 (Homo sapiens)
# Construct: endogenous in cells
# EXPERIMENTAL_PROTOCOL: Proteomic TE50 (IA-DTB / TMT mass spectrometry) in Jurkat cell lysate
# MEASUREMENT_CONTEXT: 1 hour at rt, 7-point dose response
REPORTED_ENDPOINT: IC50 (nM)

COc1ccc(S(=O)(=O)N2CCC(F)(C(=O)N[C@@H](C)/C=C\S(C)(=O)=O)CC2)c(-c2ccccc2Cl)c1    70.1

[a] C[C@@H](/C=C\S(C)(=O)=O)NC(=O)C1(F)CCN(S(=O)(=O)c2ccc(Cl)cc2-c2cccc(OC3CC3)c2)CC1
[b] C[C@@H](/C=C\S(C)(=O)=O)NC(=O)C1(F)CCN(S(=O)(=O)c2ccc(Cl)cc2-c2cccc(OCc3cccc(Cl)c3)c2)CC1
Request: Please tell me which of the two, a or b , has the higher reported IC50 value. When you have decided, please share the label of that item.
Result: b
(b: 600 nM, a: 400 nM)

----------
# SUBJECT_OF_TEST: PIK3CA (Homo sapiens)
# Construct: endogenous in cells
# EXPERIMENTAL_PROTOCOL: In vitro ELISA target engagement assay for PIK3CA in Jurkat cellular lysate (competition with PIK3CA Biotin Probe)
# MEASUREMENT_CONTEXT: 1 hour at rt, then 500 nM PIK3CA Biotin Probe, read-out: Elisa Target Engagement Assay (TE50)
pIC50: −log10 of the molar value.
REPORTED_ENDPOINT: pIC50

C[C@H](/C=C\S(C)(=O)=O)NC(=O)[C@]1(F)CCN(S(=O)(=O)c2ccc(OC(F)(F)F)cc2-c2ccccc2Cl)[C@H](C)C1    6.46
O=C([C@H]1CN(CC(F)(F)F)C[C@H]1c1ccccc1Cl)N1CCC[C@](F)(C(=O)N[C@@H]2C=CS(=O)(=O)C2)CC1    6.12
C[C@H](/C=C\S(C)(=O)=O)NC(=O)[C@]1(F)CCN(S(=O)(=O)c2ccc(C(F)(F)F)cc2-c2ccccc2Cl)[C@H](C)C1    6.92
CC(O)c1ccc(S(=O)(=O)N2CC[C@@](F)(C(=O)N[C@H](C)/C=C/C(=O)N3CC(F)(F)C3)C[C@H]2C)c(-c2ccccc2Cl)c1 (mixture of isomers)    6.55
O=C([C@H]1CN(CC(F)(F)F)C[C@H]1c1ccccc1Cl)N1CCC(F)(C(=O)N[C@@H]2C=CS(=O)(=O)C2)CC1    6.43
COCc1cccc(-c2cc(Cl)ccc2S(=O)(=O)N2CCC(F)(C(=O)N[C@@H](C)/C=C\S(C)(=O)=O)CC2)c1    6.37
C[C@@H]1C[C@](F)(C(=O)NC/C=C\C(=O)N2CC(F)(F)C2)CCN1S(=O)(=O)c1ccc(C#N)cc1-c1ccccc1Cl    6.80
CCOc1ccc(S(=O)(=O)N2CC[C@@](F)(C(=O)N[C@H](C)/C=C/C(=O)N3CC(F)(F)C3)C[C@H]2C)c(-c2ccccc2Cl)c1    6.14
C[C@H](/C=C\S(C)(=O)=O)NC(=O)C1(F)CCN(C(=O)[C@H]2CN(CC(F)(F)F)C[C@H]2c2ccccc2Cl)C1 (stereo partly drawn)    5.96

[P] C[C@H](/C=C\[S@](C)(=N)=O)NC(=O)C1(F)CCN(S(=O)(=O)c2ccc(Br)cc2-c2ccccc2Cl)CC1 (single isomer, unassigned)
[Q] CCCNC(=O)c1cccc(-c2cc(Cl)ccc2S(=O)(=O)N2CCC(F)(C(=O)N[C@@H](C)/C=C\S(C)(=O)=O)CC2)c1
[R] CS(=O)(=O)/C=C\[C@H](CC(F)(F)F)NC(=O)C1(F)CCN(S(=O)(=O)c2ccc(Br)cc2-c2ccccc2Cl)CC1 (single isomer, unassigned)
Request: Sort ascending by pIC50. Provide the ranking by listing each label in its place in the requested order.
Result: Q, P, R
(Q: 6.00, P: 6.39, R: 6.92)

----------
# SUBJECT_OF_TEST: PIK3CA (Homo sapiens)
# Construct: endogenous in cells
# EXPERIMENTAL_PROTOCOL: In vitro ELISA target engagement assay for PIK3CA in Jurkat cellular lysate (competition with PIK3CA Biotin Probe)
# MEASUREMENT_CONTEXT: 1 hour at rt, then 500 nM PIK3CA Biotin Probe, read-out: Elisa Target Engagement Assay (TE50)
pIC50: −log10 of the molar value.
REPORTED_ENDPOINT: pIC50

C[C@H](/C=C\S(C)(=O)=O)NC(=O)[C@@]1(F)CCCN(C(=O)[C@H]2CN(CC(F)F)C[C@H]2c2ccccc2Cl)CC1    6.87

[a] O=C(/C=C/CNC(=O)C1(F)CCN(S(=O)(=O)c2ccc(Br)cc2-c2ccccc2Cl)CC1)N1CC(F)(F)C1
[b] COc1cccc(-c2cc(N(C)C)ccc2S(=O)(=O)N2CCC(F)(C(=O)N[C@@H](C)/C=C\S(C)(=O)=O)CC2)c1Cl
Request: # query: argmin of pIC50 over a and b Reply with the label of the item you choose.
Result: b
(b: 6.60, a: 6.85)

----------
# SUBJECT_OF_TEST: PIK3CA (Homo sapiens, UniProt P42336)
# Construct: endogenous in cells
# Sequence (P42336 whole entry): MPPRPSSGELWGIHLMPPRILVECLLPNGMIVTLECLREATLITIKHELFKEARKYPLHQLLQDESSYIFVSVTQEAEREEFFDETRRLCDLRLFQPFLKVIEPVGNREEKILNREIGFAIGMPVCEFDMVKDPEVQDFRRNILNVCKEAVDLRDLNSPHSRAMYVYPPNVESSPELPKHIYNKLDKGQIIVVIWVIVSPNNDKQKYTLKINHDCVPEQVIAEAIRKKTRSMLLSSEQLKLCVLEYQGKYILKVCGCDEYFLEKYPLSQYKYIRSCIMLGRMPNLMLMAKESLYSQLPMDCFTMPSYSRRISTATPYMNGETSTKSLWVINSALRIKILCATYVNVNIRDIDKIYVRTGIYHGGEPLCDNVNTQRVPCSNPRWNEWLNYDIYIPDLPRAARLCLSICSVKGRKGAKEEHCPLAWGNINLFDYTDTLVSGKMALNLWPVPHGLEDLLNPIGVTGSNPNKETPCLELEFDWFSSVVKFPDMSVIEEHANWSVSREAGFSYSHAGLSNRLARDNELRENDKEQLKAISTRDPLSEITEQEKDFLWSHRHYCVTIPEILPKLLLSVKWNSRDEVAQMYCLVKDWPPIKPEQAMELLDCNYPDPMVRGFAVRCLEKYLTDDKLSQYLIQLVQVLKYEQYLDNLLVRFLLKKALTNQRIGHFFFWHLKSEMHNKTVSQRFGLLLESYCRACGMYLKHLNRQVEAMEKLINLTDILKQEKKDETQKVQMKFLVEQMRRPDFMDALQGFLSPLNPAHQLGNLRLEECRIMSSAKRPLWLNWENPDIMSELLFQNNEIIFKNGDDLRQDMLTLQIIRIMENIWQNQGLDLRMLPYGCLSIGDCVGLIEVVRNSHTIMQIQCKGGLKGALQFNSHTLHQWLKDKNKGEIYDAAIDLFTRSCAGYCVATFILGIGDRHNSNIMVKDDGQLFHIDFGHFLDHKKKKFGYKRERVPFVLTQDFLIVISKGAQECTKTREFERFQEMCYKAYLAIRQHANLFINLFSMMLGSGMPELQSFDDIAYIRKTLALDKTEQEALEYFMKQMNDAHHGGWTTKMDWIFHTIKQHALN
# Sequence (P27986 whole entry partner): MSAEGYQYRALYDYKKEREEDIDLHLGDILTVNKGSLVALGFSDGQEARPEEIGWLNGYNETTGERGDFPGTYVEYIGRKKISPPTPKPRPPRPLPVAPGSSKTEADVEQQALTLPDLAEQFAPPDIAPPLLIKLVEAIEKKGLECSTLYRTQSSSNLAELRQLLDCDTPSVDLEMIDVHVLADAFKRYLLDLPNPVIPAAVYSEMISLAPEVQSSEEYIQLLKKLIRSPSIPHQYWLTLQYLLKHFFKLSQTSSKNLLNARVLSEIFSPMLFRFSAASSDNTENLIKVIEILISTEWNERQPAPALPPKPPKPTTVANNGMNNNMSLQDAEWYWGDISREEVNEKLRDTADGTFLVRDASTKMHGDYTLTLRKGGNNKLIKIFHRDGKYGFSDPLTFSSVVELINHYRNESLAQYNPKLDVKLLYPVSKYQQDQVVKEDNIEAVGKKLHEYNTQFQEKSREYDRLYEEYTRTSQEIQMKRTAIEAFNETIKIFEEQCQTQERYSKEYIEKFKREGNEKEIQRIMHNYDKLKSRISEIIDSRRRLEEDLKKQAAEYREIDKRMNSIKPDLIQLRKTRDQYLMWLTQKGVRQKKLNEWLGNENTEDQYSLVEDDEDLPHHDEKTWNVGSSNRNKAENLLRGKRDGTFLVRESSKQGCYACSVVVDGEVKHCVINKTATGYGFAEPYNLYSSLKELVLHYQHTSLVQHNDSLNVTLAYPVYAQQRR
# EXPERIMENTAL_PROTOCOL: In vitro ELISA target engagement assay for PIK3CA in Jurkat cellular lysate (competition with PIK3CA Biotin Probe)
# MEASUREMENT_CONTEXT: 1 hour at rt, then 500 nM PIK3CA Biotin Probe, read-out: Elisa Target Engagement Assay (TE50)
pIC50: −log10 of the molar value.
REPORTED_ENDPOINT: pIC50

C[C@H](/C=C/C(=O)N1CC(F)(F)C1)NC(=O)[C@]1(F)CCN(S(=O)(=O)c2ccc(C(F)(F)F)cc2-c2ccccc2Cl)[C@H](C)C1 [Compound 152]    6.35
C[C@@H](/C=C\S(C)(=O)=O)NC(=O)[C@@]1(F)CCCN(C(=O)[C@H]2CN(CC(F)(F)F)C[C@H]2c2c(F)cccc2Cl)CC1 [Compound 297]    6.04
COc1ccc(S(=O)(=O)N2CCC[C@@](F)(C(=O)N[C@H](C)/C=C\S(C)(=O)=O)CC2)c(-c2ccccc2Cl)c1 [Compound 313]    6.28

[I] C[C@H](/C=C\S(C)(=O)=O)NC(=O)C1(F)CCN(S(=O)(=O)c2ccc(F)cc2-c2ccccc2Cl)CC1 [Compound 31]
[II] C[C@H](/C=C/C(=O)N1CC(F)(F)C1)NC(=O)[C@]1(F)CCN(S(=O)(=O)c2ccc(OC(F)F)cc2-c2ccccc2Cl)[C@H](C)C1 [Compound 251]
[III] C[C@H](/C=C\S(C)(=O)=O)NC(=O)C1(F)CCN(C(=O)[C@H]2CCC(C)(C)C[C@@H]2c2ccccc2Cl)CC1 (racemic) [Compound 255]
Request: Please put the entries in order of rising pIC50. Answer by writing out the labels in the requested order.
Result: I, III, II
(I: 6.12, III: 6.37, II: 6.59)
